Provenance of the data: PubChem BioAssay (Tox21)

tested.target: Cytochrome P450 1A2 (Homo sapiens)
assay.method.text: Cytochrome P450 Family 1 Subfamily A Member 2 (CYP1A2) small molecule antagonists: luciferase reporter qHTS assay (AID 1671199); further: nearly all actives have a fitted effect of over 50% in size; further: potency means the concentration at half of the fitted maximal effect
condition.info: P450-Glo CYP1A2 enzyme, luciferin luminescence, 1 h; series mostly up to 53 µM
Records with an inconclusive call do not appear. Activity calls are given as the source filed them. The call rests on the fitted dose curve; in most records, active means well fitted inhibition curve with a large enough effect in the repeat runs; inconclusive means weak or mixed curves; inactive means no such curve, though single readings can be large or run the other way.
value.type: Potency

- compound: "Nc1cc(C(F)(F)F)ccc1S"
  result: "12.3 µM (active)"
- compound: "O=C(O)c1cc(O)c2c(c1)C(=O)c1cccc(O)c1C2=O"
  result: "36.7 µM (active)"
- compound: "COC(=O)C1=C(C)NC(C)=C(C(=O)OCCc2ccc(N3CCN(C(c4ccccc4)c4ccccc4)CC3)cc2)C1c1cccc([N+](=O)[O-])c1 (configuration not stated)"
  result: "14.4 µM (active)"
- compound: "CCC(C)Nc1ccc(NC(C)CC)cc1 (configuration not stated)"
  result: "40.7 µM (active)"
- compound: "O=C(Nc1ccc(Oc2ccc(Cl)cc2)c(Cl)c1)c1cc(I)cc(I)c1O"
  result: "inactive"

Hi there! I need Potency for each item below, if you can.
1. O=C(Nc1cccc(C(F)(F)F)c1)c1cc(Br)cc(Br)c1O
2. C=CC(=O)OCC(CO)(COCC(COC(=O)C=C)(COC(=O)C=C)COC(=O)C=C)COC(=O)C=C

["56.4 µM (active)", "inactive"]

====

assay.method.text: qHTS assay for identifying genotoxic compounds that show differential cytotoxicity against isogenic chicken DT40 cell lines with known DNA damage response pathways - Rad54/Ku70 mutant cell line (AID 743015); further: nearly all actives have a fitted effect of over 60% in size; further: potency means the concentration at half of the fitted maximal effect
condition.info: DT40 Rad54/Ku70 mutant viability, CellTiter-Glo, 40 h; series mostly up to 66.8 µM
Results filed as inconclusive are left out. Calls of active or inactive are those of the source. Calls follow the shape of the dose curve; as a rule, active = well fitted cell-killing curve with a large enough effect in the repeat runs; inconclusive = weak or mixed curves; inactive = no such curve, though single readings can be large or run the other way.
Provide the reported Potency of each item.

- molecule: "CNc1ccc(O)cc1"
  value.type: "Potency"
  result: "10.8 µM (active)"

Attention now shifts to the item below.
// Input: Cc1nc(-c2ccc3c(c2)CCN(CCC2CCC(NC(=O)/C=C/c4ccc(F)cc4)CC2)CC3)no1 (stereo not drawn) . Output its Potency only.
0.546 µM (active)

====

assay.method.text: qHTS assay for identifying genotoxic compounds that show differential cytotoxicity against isogenic chicken DT40 cell lines with known DNA damage response pathways - Rad54/Ku70 mutant cell line (AID 743015); further: nearly all actives have a fitted effect of over 60% in size
condition.info: DT40 Rad54/Ku70 mutant viability, CellTiter-Glo, 40 h; series mostly up to 66.8 µM
Results filed as inconclusive are left out. Calls of active or inactive are those of the source. The call rests on the fitted dose curve; in most records, active means well fitted cell-killing curve with a large enough effect in the repeat runs; inconclusive means weak or mixed curves; inactive means no such curve, though single readings can be large or run the other way.
// allowed return values: active, inactive

Query: recorded result category for N#CSc1ccc(N)c([N+](=O)[O-])c1 in this test
active

Query: recorded result category for CC(=O)OCC(C)OC(C)=O (centres undefined) in this test
inactive

====

assay.method.text: qHTS assay for small molecule agonists of the p53 signaling pathway - cell viability (AID 651633); further: nearly all actives have a fitted effect of over 30% in size
condition.info: p53RE-bla HCT-116 viability, ATP luminescence, 16 h; series mostly up to 83.3 µM
Records with an inconclusive call do not appear. Activity calls are given as the source filed them. Calls come from the whole dose curve.
// allowed return values: yes for active, no for inactive

Solved cases (4 shown):
- compound: "Cc1cc(O)c(C(C)(C)C)cc1C(C)(C)C"
  class.label: "yes"
- compound: "CC(C)OC(=O)c1cc2c(OCC(O)CNC(C)(C)C)cccc2[nH]1 (stereo not given)"
  class.label: "no"
- compound: "Cc1cccc2c1cc1ccc3cccc4ccc2c1c34"
  class.label: "no"
- compound: "NNc1nc(-c2ccc(N)cc2)cs1"
  class.label: "no"

Proceed to the following item.
Query: recorded result category for CCCCCCCC/C=C\CCCCCCCCOCCO in this test
yes
